// reported koff per item
System under test: T1, human CD38 protein immobilised on AR2G biosensor (human, UniProt P28907 43-300, limits assumed)
T1 construct: Construct used on the Octet is not described; also called immobilised human CD38
Assay explanation: Octet BLI, immobilised CD38
Write the value in s⁻¹ as a bare number.

Binder	koff, s⁻¹
WF140 (VHH, also called s-15a; s-15.1a) VHH: DVQLQASGGGSVQAGGSLRLSCAASGLSFSDYAMGWFRQEPGKERRFVASIRSSGGTTYAESVKGRFTISRDNAKNTMYLQMNNLKPEDTAVYYCAADRLVITKLSIADPGYWGQGTQVTVSS	0.00054

Proceed to the following item.
Ask: # query: koff of entry WF32 (VHH, His6-Myc-tagged monovalent VHH; also called I-8.2f; family 2) VHH: QVQLQESGGGLVQAGGSLRLSCAASGIILRIYDMGWYRQAPGKQRELVAAITSGGSTNYADSVKGRFTISRDNAKSMVYLQMNSLKPEDTAVYYCNAWHVFRGNYWGQGTQVTVSS
Result: 0.00026

From: patent US20190276551A1
